The measurements presented in this section are drawn from ChEMBL document CHEMBL2021813.

Attribute: Activity
systemName: Mu-type opioid receptor (Homo sapiens)
Sequence (P35372 whole entry): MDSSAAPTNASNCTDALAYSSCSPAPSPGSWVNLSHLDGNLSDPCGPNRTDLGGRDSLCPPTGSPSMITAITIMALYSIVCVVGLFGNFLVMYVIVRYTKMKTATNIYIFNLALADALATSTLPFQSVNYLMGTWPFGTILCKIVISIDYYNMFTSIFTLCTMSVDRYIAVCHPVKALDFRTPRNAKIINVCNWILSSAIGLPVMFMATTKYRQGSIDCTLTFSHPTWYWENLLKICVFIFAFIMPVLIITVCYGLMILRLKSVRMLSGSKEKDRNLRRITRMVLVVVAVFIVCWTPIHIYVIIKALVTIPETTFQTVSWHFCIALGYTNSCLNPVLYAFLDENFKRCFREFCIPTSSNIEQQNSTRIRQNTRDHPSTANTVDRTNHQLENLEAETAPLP
experimentalDetails: Displacement of [3H]DAMGO from human recombinant mu opioid receptor expressed in CHO cells at 10 uM after 2 hrs by liquid scintillation counting
Format: cell-based
# value in %; strip the unit string

{"compound": "COC(=O)[C@@H]1C[C@H](OC(C)=O)C(=O)[C@H]2[C@@]1(C)CC[C@H]1C(=O)O[C@H](C(=O)c3ccccc3OC)C[C@]21C", "Activity (%)": 53}
{"compound": "COC(=O)[C@@H]1C[C@H](OC(C)=O)C(=O)[C@H]2[C@@]1(C)CC[C@H]1C(=O)O[C@H](C(=O)c3ccc(OC)cc3)C[C@]21C", "Activity (%)": 74}

Lab note: next compound to report on.
QUERY: Given the entry COC(=O)[C@@H]1C[C@H](OC(C)=O)C(=O)[C@H]2[C@@]1(C)CC[C@H]1C(=O)O[C@@H](c3ccoc3)C[C@]21C [12-EPI-SALVINORIN A] , report its measured Activity.
RESULT: 72

* * *

Attribute: Activity
systemName: Delta-type opioid receptor (Homo sapiens)
Sequence (P41143 whole entry): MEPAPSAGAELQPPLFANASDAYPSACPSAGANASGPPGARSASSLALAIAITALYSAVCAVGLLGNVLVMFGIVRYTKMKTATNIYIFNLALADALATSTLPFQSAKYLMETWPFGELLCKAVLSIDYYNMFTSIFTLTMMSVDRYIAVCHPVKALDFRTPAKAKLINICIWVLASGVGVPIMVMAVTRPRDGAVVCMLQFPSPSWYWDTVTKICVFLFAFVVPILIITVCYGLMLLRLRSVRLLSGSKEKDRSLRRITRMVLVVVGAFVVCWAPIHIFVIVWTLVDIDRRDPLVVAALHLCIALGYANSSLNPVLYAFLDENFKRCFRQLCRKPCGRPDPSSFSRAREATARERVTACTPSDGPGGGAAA
experimentalDetails: Displacement of [3H]DADLE from human recombinant delta opioid receptor expressed in CHO cells at 10 uM after 2 hrs by liquid scintillation counting
Format: cell-based
# value in %; strip the unit string

Sample answers from the record:
{"compound": "COC(=O)[C@@H]1C[C@H](OC(C)=O)C(=O)[C@H]2[C@@]1(C)CC[C@H]1C(=O)O[C@H](C(=O)c3cccc(O)c3)C[C@]21C", "observedProperty": "Activity", "observed": 80}
{"compound": "COC(=O)[C@@H]1C[C@H](OC(C)=O)C(=O)[C@H]2[C@@]1(C)CC[C@H]1C(=O)O[C@H](/C=C/c3ccoc3)C[C@]21C", "observedProperty": "Activity", "observed": 66}
{"compound": "COC(=O)[C@@H]1C[C@H](OC(C)=O)C(=O)[C@H]2[C@@]1(C)CC[C@H]1C(=O)O[C@H](C(=O)c3ccsc3)C[C@]21C", "observedProperty": "Activity", "observed": 88}
{"compound": "COC(=O)[C@@H]1C[C@H](OC(C)=O)C(=O)[C@H]2[C@@]1(C)CC[C@H]1C(=O)O[C@@H](c3ccoc3)C[C@]21C [12-EPI-SALVINORIN A]", "observedProperty": "Activity", "observed": 74}
{"compound": "COC(=O)[C@@H]1C[C@H](OC(C)=O)C(=O)[C@H]2[C@@]1(C)CC[C@H]1C(=O)O[C@H](C(=O)c3ccco3)C[C@]21C", "observedProperty": "Activity", "observed": 91}

QUERY: Request - read-out Activity | tested on Delta-type opioid receptor (Homo sapiens) | compound COC(=O)[C@@H]1C[C@H](OC(C)=O)C(=O)[C@H]2[C@@]1(C)CC[C@H]1C(=O)O[C@H](C(=O)c3ccccc3O)C[C@]21C
RESULT: 94

QUERY: Also check COC(=O)[C@@H]1C[C@H](OC(C)=O)C(=O)[C@H]2[C@@]1(C)CC[C@H]1C(=O)O[C@H](C(=O)c3cc4ccccc4s3)C[C@]21C
RESULT: 95

* * *

systemName: Kappa-type opioid receptor (Homo sapiens)
Sequence (P41145 whole entry): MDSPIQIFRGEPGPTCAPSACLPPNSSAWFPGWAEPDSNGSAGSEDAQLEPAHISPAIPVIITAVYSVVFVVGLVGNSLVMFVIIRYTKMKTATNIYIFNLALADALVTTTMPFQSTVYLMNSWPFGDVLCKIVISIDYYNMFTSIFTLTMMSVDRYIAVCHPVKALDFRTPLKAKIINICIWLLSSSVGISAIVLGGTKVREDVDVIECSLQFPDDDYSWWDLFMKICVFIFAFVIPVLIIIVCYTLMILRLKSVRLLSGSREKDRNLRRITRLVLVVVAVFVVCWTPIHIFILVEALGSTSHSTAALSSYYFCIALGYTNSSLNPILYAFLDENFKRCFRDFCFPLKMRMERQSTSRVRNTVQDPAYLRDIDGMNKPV
experimentalDetails: Agonist activity at human recombinant kappa opioid receptor expressed in CHO cells assessed as [35S]GTP-gamma-S binding after 3 hrs by liquid scintillation counting relative to (-)U50488
Format: functional, cell-based
observedProperty: Emax (%)
# value in %; strip the unit string

Sample answers from the record:
{"structure": "COC(=O)[C@@H]1C[C@H](OC(C)=O)C(=O)[C@H]2[C@@]1(C)CC[C@H]1C(=O)O[C@H](C(=O)c3ccsc3)C[C@]21C", "unitAbbrev": "%", "observed": 88}
{"structure": "COC(=O)[C@@H]1C[C@H](OC(C)=O)C(=O)[C@H]2[C@@]1(C)CC[C@H]1C(=O)O[C@H](C(=O)c3cccc(C(N)=O)c3)C[C@]21C", "unitAbbrev": "%", "observed": 92}

Lab note: next compound to report on.
QUERY: Given the entry COC(=O)[C@@H]1C[C@H](OC(C)=O)C(=O)[C@H]2[C@@]1(C)CC[C@H]1C(=O)O[C@H](c3ccco3)C[C@]21C , report its measured Emax.
RESULT: 104
